Test system: C. difficile
run.description: agar dilution MIC assay of anaerobic bacteria
Format: cell-based, Clostridium difficile
assay.conditions: Clostridioides difficile, C. diff. Strain no. 20494, Table 4; read-out: MIC
Method: Each compound was assayed against a panel of anaerobic bacteria in culture, consisting of Gram-positive organisms, such as Lactobacilli, Bifidobacteria, Clostridium spp., and Gram-negative bacteria, such as […] fragilis spp., according to guidelines of the Clinical and Laboratory Standards Institute (CLSI document M11-A7, CLSI, Wayne, Pa., 2007). […] The MIC in μg/ml was read per Clinical and Laboratory Standards Institute guidelines.
metric: MIC (µg/mL)

>>> recorded_measurement("CN[C@H](CC(C)C)C(=O)N[C@H]1C(=O)N[C@@H](CC(N)=O)C(=O)N[C@H]2C(=O)N[C@H]3C(=O)N[C@H](C(=O)N[C@H](C(=O)O)c4cc(O)cc(O)c4-c4cc3ccc4O)[C@H](O)c3ccc(c(Cl)c3)Oc3cc2cc(c3O[C@@H]2O[C@H](CO)[C@@H](O)[C@H](O)[C@H]2O[C@H]2C[C@](C)(N)[C@H](O)[C@H](C)O2)Oc2ccc(cc2Cl)[C@H]1O [vancomycin, reference compound]")
4
>>> recorded_measurement("O=c1[nH]c(NCc2ccc(Cl)c(Cl)c2)nc2ncn(CCCCN3CCOCC3)c12 [Compound 258D]")
4
>>> recorded_measurement("Cc1ncc([N+](=O)[O-])n1CCO [metronidazole, reference compound]")
1
>>> recorded_measurement("O=c1[nH]c(NCc2ccc(Cl)c(Cl)c2)nc2ncn(CCCCCN3CCOCC3)c12 [Compound 359E]")
8

Values from patent US8796292B2
